Could you please report measured selectivity ratio for the items listed next?
# Experimental Details: Selectivity index, ratio of compound effect for human Caco2 cells at maximum non-toxic concentration concentration to MIC for methicillin-resistant Streptococcus pneumoniae ATCC 700677
# Type: toxicity
# Condition Notes: Caco-2 cells, read-out: Selectivity Index

Sure, the documented selectivity ratio for `CCCCCCCOc1ccc(-c2nc(C)c(-c3ccnc(NC(=N)N(C)C)n3)s2)cc1` is 7 to 82

Sure, the documented selectivity ratio for `CCCCCCCOc1ccc(-c2nc(C)c(-c3ccnc(NC(=N)N4CCN(C)CC4)n3)s2)cc1` is 7 to 82

====

# Experimental Details: Volume of distribution at steady state in Sprague-Dawley rat at 5 uM, iv administered as single bolus dose by LC-MS/MS analysis
# Type: ADME, organism-based
# Condition Notes: in vivo, read-out: Vdss
Observable: Vd at 5 µM (L)
The response must be a number in L with no trailing unit.

Sure, the documented Vd at 5 µM for `CCCCCCCOc1ccc(-c2nc(C)c(-c3ccnc(NC(=N)N(C)C)n3)s2)cc1` is 4.36

====

# System: Staphylococcus aureus
# Experimental Details: Antibacterial activity against vancomycin-resistant Staphylococcus aureus VRSA12 after 20 hrs by broth microdilution assay
# Assay type: functional
# Condition Notes: VRSA12, 20 h
Observable: MIC (µg/mL)
The response must be a number in µg/mL with no trailing unit.

Staphylococcus aureus data for `CCCCCCCCOc1ccc(-c2nc(C)c(-c3ccnc(NC(=N)N(C)C)n3)s2)cc1` ; its MIC: 16

====

# Tested on: Enterococcus faecium
# Experimental Details: Bactericidal activity against vancomycin-resistant Enterococcus faecium ATCC 700221 incubated for 20 hrs followed by re-plating on tryptic soy agar plates at 37 degC for 18 hrs by broth microdilution assay
# Format: functional
Could you please report measured MBC for the items listed next?
The response must be a number in µg/mL with no trailing unit.

Sure, the documented MBC for `CCCCCCCCOc1ccc(-c2nc(C)c(-c3ccnc(NC(=N)N4CCN(C)CC4)n3)s2)cc1` is 16

Sure, the documented MBC for `CCCCCCCCOc1ccc(-c2nc(C)c(-c3ccnc(NC(=N)N(C)C)n3)s2)cc1` is 8

Sure, the documented MBC for `CCCCCCCOc1ccc(-c2nc(C)c(-c3ccnc(NC(=N)N(C)C)n3)s2)cc1` is 8

Sure, the documented MBC for `CCCCCCCOc1ccc(-c2nc(C)c(-c3ccnc(NC(=N)N4CCN(C)CC4)n3)s2)cc1` is 8

====

# Experimental Details: Half life in Sprague-Dawley rat at 5 uM, iv administered as single bolus dose by LC-MS/MS analysis
# Type: ADME, organism-based
# Condition Notes: in vivo
Observable: half-life at 5 µM (h)
The response must be a number in h with no trailing unit.

Sure, the documented half-life at 5 µM for `CCCCCCCOc1ccc(-c2nc(C)c(-c3ccnc(NC(=N)N(C)C)n3)s2)cc1` is 4

====

# Test system: Staphylococcus aureus
# Experimental Details: Antibacterial activity against Staphylococcus aureus after 20 hrs by broth microdilution assay
# Format: functional
Observable: MIC (µg/mL)
The response must be a number in µg/mL with no trailing unit.

Sure, the documented MIC for `CCCCCCCOc1ccc(-c2nc(C)c(-c3ccnc(NC(=N)N(C)C)n3)s2)cc1` is 4

Sure, the documented MIC for `CCCCCCCCOc1ccc(-c2nc(C)c(-c3ccnc(NC(=N)N4CCN(C)CC4)n3)s2)cc1` is 16

Sure, the documented MIC for `CCCCCCCCOc1ccc(-c2nc(C)c(-c3ccnc(NC(=N)N(C)C)n3)s2)cc1` is 8

Sure, the documented MIC for `CCCCCCCOc1ccc(-c2nc(C)c(-c3ccnc(NN)n3)s2)cc1` is 16

Sure, the documented MIC for `CCCCCCCOc1ccc(-c2nc(C)c(-c3ccnc(NC(=N)N4CCN(C)CC4)n3)s2)cc1` is 8
